Origin of values: patent US12383628B2

TEST DESCRIPTION: Peptide gelation (tilted tube / inverted vial test, minimum gelation concentration)
Assay type: physicochemical
PARTICULARS: 2% w/v, PBS 10 mM, pH 7.4

| SUBSTANCE | Gelation behaviour |
| --- | --- |
| H-Leu-Glu-Leu-Gln-Leu-Lys-NH2 (H-LELQLK-NH2) [peptide 6] | remained in solution |
| H-AEAQAK-NH2 [compound 8, H-Ala-Glu-Ala-Gln-Ala-Lys-NH2] | remained in solution |
| H-VEVQVK-NH2 [compound 7, H-Val-Glu-Val-Gln-Val-Lys-NH2] | remained in solution |
